B1: library; a variant is named by its letters at N, in order (parent)
chain: AATGTTGTTGATGCAACCATAAAGTGATATTTAATAATTATTTATAATCAGCAACTTAACCACAAAACAACCATATATTGATATNTCACAAAACAACCATAANTTGATATTTTTGTGAATCGAGTATTTCAGCAAAACTACTGCAGTAAGAA

variants of: B1; assay: relative integration efficiency (T-LR orientation) vs wild-type transposon end (log2 (normalized fold change)); transposon end mutated: left end; higher = more efficient transposition; settings: with VchCAST RNA-guided transposition machinery (E. coli BL21(DE3) host, lacZ target)
Record form. Attribute: relative integration efficiency (log2). Fill in for each entry.
Give bare numbers.

Here is how some variants turned out for relative integration efficiency (log2).
CG C61A A62C C63A A64C = -0.0245
CG A23T G24C = 0.111
CG T100G A101C = -3.81

# batch: return relative integration efficiency (log2) for each of the 2 variants below
1. CG A29C T30G
2. CG A77T T78A

1: -1.28; 2: 0.574

# batch: return relative integration efficiency (log2) for each of the 3 variants below
1. CG A19T T20A
2. CG A1C A2C T3G G4T T5G
3. CG A62C C63A A64C A65C

1. -0.844
2. -0.299
3. -0.604

# batch: return relative integration efficiency (log2) for each of the 3 variants below
1. CG T20G
2. CG A27G
3. CG T48G C49A A50C G51T C52A A53C A54C C55A T56G T57G A58C

[-0.668, -0.486, -3.04]
